molecular target: ADP P2Y12 (Homo sapiens); experiment: FLIPR calcium assay transducing Gi-coupled signaling to the Gq pathway (inhibition of calcium mobilization); conditions: HEK 293 cells co-transfected with P2Y12 and Gqi5, ADP at EC60-70 dose
Sequence (Q9H244 whole entry): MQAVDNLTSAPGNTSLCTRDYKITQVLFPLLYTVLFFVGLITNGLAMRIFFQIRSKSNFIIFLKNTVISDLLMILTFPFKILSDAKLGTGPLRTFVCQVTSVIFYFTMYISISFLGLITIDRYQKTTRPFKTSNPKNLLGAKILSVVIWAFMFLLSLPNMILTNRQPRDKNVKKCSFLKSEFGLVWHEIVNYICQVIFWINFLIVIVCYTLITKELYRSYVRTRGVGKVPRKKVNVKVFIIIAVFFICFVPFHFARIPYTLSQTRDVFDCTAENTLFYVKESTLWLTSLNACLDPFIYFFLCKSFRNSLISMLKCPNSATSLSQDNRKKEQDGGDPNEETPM
IC50 values, listed per item
Endpoint name: IC50 (nM)

* CCCSc1nc(N[C@@H]2C[C@H]2c2ccccc2)c2nnn([C@@H]3C=C[C@H](O)[C@@H](O)[C@H]3O)c2n1 (mixture of isomers) | 745
* CCCSc1nc(N[C@@H]2C[C@H]2c2ccccc2)c2nnn([C@@H]3C=C[C@H](OCC(=O)O)[C@@H](O)[C@H]3O)c2n1 (mixture of isomers) | 2200

Data origin, for the record: patent US8148385B2
